Test system: DMS-114
Experiment: NCI tumour cell line growth inhibition, 48 h
The source made the active and inactive calls. Rule as the data show it: active = GI50 up to about 1.1 µM and inactive = higher.
Property: GI50

Use these answered entries as a reference point.
{"Molecule": "O=C(Nc1ccccc1-c1nn(CO)c(=S)n(CO)c1=O)C(F)(F)F", "GI50": "> 100 µM (inactive)"}
{"Molecule": "C=CCC12CC(=O)CCC1c1ccc(OC)cc1C2=O (centres undefined)", "GI50": "> 100 µM (inactive)"}
{"Molecule": "COc1ccc(OC)c(NC(=O)CCC/C(CC(=O)c2ccc(O)c(OC)c2)=N\\Nc2nnc(C)n2N)c1", "GI50": "95.7 µM (inactive)"}
{"Molecule": "N#CC12CCC(O)C(CC1)C2=O (centres undefined)", "GI50": "19.4 µM (inactive)"}
{"Molecule": "Oc1cc(-c2cccs2)nc2cc3c(cc12)OCO3", "GI50": "3.93 µM (inactive)"}

Requested read-out: GI50. Entry: CCOC(=O)C1(Br)C(c2ccccc2)NC(=O)N(C2OC(COC(=O)c3ccccc3)C(OC(=O)c3ccccc3)C2OC(=O)c2ccccc2)C1(C)Br (centres undefined) 18.3 µM (inactive)

Requested read-out: GI50. Entry: Fc1ccc(C2SCc3nc4ccccc4n32)cc1 (centres undefined) 39.5 µM (inactive)

Requested read-out: GI50. Entry: COc1ccc2nc(NC(=O)C(=O)NNC(=O)c3ccncc3)sc2c1 > 100 µM (inactive)

Requested read-out: GI50. Entry: NCCNCc1c2ccccc2c(CNCCN)c2ccccc12 11.6 µM (inactive)

Requested read-out: GI50. Entry: Cc1c(Cl)ccc2c1NC(=O)C2(O)CC(=O)c1ccc(Cl)cc1 (centres undefined) 11.7 µM (inactive)

Requested read-out: GI50. Entry: O=S(O)CCCCCSSc1ccccc1 23.6 µM (inactive)

Requested read-out: GI50. Entry: COCN(C)c1nc(N(C)C)nc(N(C)C)n1 > 100 µM (inactive)

Requested read-out: GI50. Entry: COc1cc(C)cc2c1[nH]c1ccccc12 9.64 µM (inactive)

Requested read-out: GI50. Entry: COC/C=C\COC > 100 µM (inactive)

Requested read-out: GI50. Entry: CC(=O)Nc1ccc(/C=C/C(=O)c2sc(-n3nc(-c4ccccc4)cc3-c3ccccc3)nc2C)cc1 74.8 µM (inactive)

Requested read-out: GI50. Entry: Nc1ccc(N)c2c1C(=O)c1c(N)ccc(N)c1C2=O 30.6 µM (inactive)

Requested read-out: GI50. Entry: COc1c(Cl)c2c(c(OC)c1OC)-c1ccc(OC)c(=O)c(Cl)c1C(NC(C)=O)CC2 (centres undefined) 0.224 µM (active)

Requested read-out: GI50. Entry: CC1=C(C(=O)Nc2ccc([N+](=O)[O-])cc2)C(c2ccccc2O)C(C(=O)Nc2ccc([N+](=O)[O-])cc2)=C(C)N1 15.3 µM (inactive)

Requested read-out: GI50. Entry: O=C1c2cnccc2Cc2cccc3c2N1c1ccccc1S3 26.4 µM (inactive)

====

Tested on: SF-539
Assay: NCI tumour cell line growth inhibition, 48 h
Active and inactive are the calls of the source. Cut-off read from the data, not from the text of the source: active = GI50 up to about 1.1 µM and inactive = higher.
Reported GI50 by item:

Use these answered entries as a reference point.
{"Compound": "COc1ccc(/C(=N/N=c2\\[nH]c3ccccc3n2Cc2ccccc2)C(=O)O)cc1", "GI50": "23.7 µM (inactive)"}
{"Compound": "O=C1CSC(/C=C/c2ccccc2)N1c1ccc(-n2c(-c3ccccc3)nc3ccccc3c2=O)cc1 (centres undefined)", "GI50": "71.4 µM (inactive)"}

Requested read-out: GI50. Entry: O=C1c2ccccc2-c2c1c1ccccc1c(=O)n2Cc1ccccc1 57.1 µM (inactive)

Requested read-out: GI50. Entry: Cn1c(=O)c2c(nc3n(CC(O)CCl)c(=O)ccn23)n(C)c1=O (centres undefined) 46.7 µM (inactive)

Requested read-out: GI50. Entry: COc1ccc(Oc2cnn(C(Br)(Br)C(C)=O)c(=O)c2Br)cc1 12.4 µM (inactive)

Requested read-out: GI50. Entry: Cc1c(Cl)ccc2c1NC(=O)C2(O)CC(=O)c1ccc(Cl)cc1 (centres undefined) 65.2 µM (inactive)

Requested read-out: GI50. Entry: O=C1C(O)=C(CN(CCCl)CCCl)C(=O)c2ccccc21 34 µM (inactive)

Requested read-out: GI50. Entry: C=CC1=C(C)c2cc3[nH]c(c4c5nc(cc6[nH]c(cc1n2)c(C)c6CC)C(C)=C5C(=O)[C@@H]4C(=O)OC)[C@@H](CCC(=O)O)[C@@H]3C 1.86 µM (inactive)

====

Test system: U-251
Test: NCI tumour cell line growth inhibition, 48 h
Where a name gives a salt, the structure may show the parent alone. Activity calls are given as the source filed them. Rule as the data show it: active = GI50 up to about 1.1 µM and inactive = higher.
Lab note: assign the record to one of class 1 = active, class 0 = inactive

Use these answered entries as a reference point.
{"Compound": "O=C1Nc2ccc(Br)cc2/C1=N/c1ccc(Cl)cc1", "Cat": "class 0"}
{"Compound": "COC/C=C\\COC", "Cat": "class 0"}
{"Compound": "O=C(OCCN1CCCCCC1)C(c1ccsc1)C1CCCCC1 (configuration not stated) [CETIEDIL CITRATE]", "Cat": "class 0"}
{"Compound": "COc1ccc(NC(=S)N/N=C(\\c2ccccc2)c2ccccn2)cc1", "Cat": "class 1"}
{"Compound": "OC1CC2CCCN(CCc3c1[nH]c1ccccc31)C2 (configuration not stated)", "Cat": "class 0"}
{"Compound": "CC(C)N1C(C)[C@@H](c2ccccc2)O[P@@]1(=O)CC1=CCCCC1 (some centres not stated)", "Cat": "class 0"}
{"Compound": "CC(=O)Oc1ccc2c3c1O[C@H]1[C@H](O)CC[C@@]4(O)[C@@H](C2)N(C)CC[C@]314", "Cat": "class 0"}
{"Compound": "COc1cc([C@@H]2c3cc4c(cc3[C@@H](NCc3ccc(C#N)cc3)C3COC(=O)[C@@H]32)OCO4)cc(OC)c1O (some centres not stated)", "Cat": "class 1"}

Test call, this compound: Cn1c(=O)nc2n(-c3cc(C(F)(F)F)cc(C(F)(F)F)c3)c3ccccc3nc-2c1=O class 0

Test call, this compound: Cn1nc(-c2ccccc2)c2c(/C=C/c3ccccc3)onc2c1=O class 0

Test call, this compound: CCSc1s/c(=N/c2ccc(/N=c3\sc(C)c(SC)s3)cc2)sc1-c1ccc(C)cc1 class 0

Test call, this compound: O=C(O)/C(Cl)=C(\Cl)C(=O)Nc1ccccc1 class 0

Test call, this compound: Cc1cc(N(CCC#N)CCC#N)ccc1/N=N/c1ccccc1[N+](=O)[O-] class 0

Test call, this compound: CC(=O)Nc1ccc(/C=C/C(=O)c2sc(-n3nc(-c4ccccc4)cc3-c3ccccc3)nc2C)cc1 class 0

Test call, this compound: O=[N+]([O-])c1cc(-[n+]2cc([O-])on2)ccc1Cl class 0

Test call, this compound: O=C(NC(Cc1ccc(I)cc1)C(=O)O)c1cccc(Br)c1 (configuration not stated) class 0

Test call, this compound: COCN(C)c1nc(N(C)C)nc(N(C)C)n1 class 0

Test call, this compound: Cn1c2c(c3ccccc31)CCN1C(=O)CCC21 (configuration not stated) class 0

Test call, this compound: NCC(=O)Nc1ccc(S(=O)(=O)O)c2cc(S(=O)(=O)O)cc(S(=O)(=O)O)c12 class 0

Test call, this compound: Cc1cc(S(=O)(=O)Nc2cc(N)n[nH]2)c(SCc2nc(N)nc(N(C)C)n2)cc1Cl class 0

Test call, this compound: C=C(C)[C@@]1(O)CCC[C@H]1NC(=O)OC(C)(C)C class 0

Test call, this compound: S=C(N/N=C(/c1ccccc1)c1ccccn1)Nc1ccc(Cl)cc1 class 1

====

Reported GI50 by item:
Tested on: EKVX
Assay: NCI tumour cell line growth inhibition, 48 h
The source made the active and inactive calls. Cut-off read from the data, not from the text of the source: active = GI50 up to about 1.1 µM and inactive = higher.

Use these answered entries as a reference point.
{"Molecule": "COc1c(Cl)c2c(c(OC)c1OC)-c1ccc(OC)c(=O)c(Cl)c1C(NC(C)=O)CC2 (stereo not given)", "Recorded value": "7.35 µM (inactive)"}
{"Molecule": "CCOc1ccc2nc(NC(=O)C(=O)C(c3cnc4ccccc4n3)[N+](=O)[O-])sc2c1 (stereo not given)", "Recorded value": "96.8 µM (inactive)"}
{"Molecule": "O=C(Nc1ccccc1-c1nn(CO)c(=S)n(CO)c1=O)C(F)(F)F", "Recorded value": "> 100 µM (inactive)"}

Requested read-out: GI50. Entry: O=c1oc2ccccc2cc1-c1nc2ccccc2s1 11.5 µM (inactive)

Requested read-out: GI50. Entry: CC(=O)OC1=C2CC[C@@H]3C(CC[C@@]4(C)C3CC[C@@H]4OC(C)=O)[C@@]2(C)CC(C#N)C1=O (stereo not given in full) 33 µM (inactive)

Requested read-out: GI50. Entry: O=C(NCP(=O)(c1ccccc1)c1ccccc1)OCc1ccccc1 > 100 µM (inactive)

Requested read-out: GI50. Entry: CC(C)OC(=O)NCCn1cc(-c2ccccc2)nn1 > 100 µM (inactive)

Requested read-out: GI50. Entry: Cc1ccc(NC(=O)C2C(=O)N(c3ccc(C)c(C)c3)C(=O)/C2=N\NC(N)=S)cc1C (stereo not given) > 100 µM (inactive)

Requested read-out: GI50. Entry: COc1cc(COC(=O)N2CCC2C(=O)O)c([N+](=O)[O-])cc1OC (stereo not given) > 100 µM (inactive)

Requested read-out: GI50. Entry: CCCCc1c2c(nc3c1CCc1cc4c(nc1-3)-c1nc3c(c(CCCC)c1CC4)CCC/C3=C\c1ccccc1)/C(=C/c1ccccc1)CCC2 > 100 µM (inactive)

Requested read-out: GI50. Entry: Fc1ccc(C2SCc3nc4ccccc4n32)cc1 (stereo not given) 58.1 µM (inactive)

Requested read-out: GI50. Entry: CCOC(=O)c1sc2nc(SC)nc3c2c1N=CN3c1ccccc1Cl 55.3 µM (inactive)
